- assay.target: T1, human LAP-TGFB1 Fc fusion (human)
- T1 construct: also called human LAP-TGFβ1-Fc; human LAP-TGFβ-Fc isoform 1
- T1 sequence (chain, as listed by the source limits assumed): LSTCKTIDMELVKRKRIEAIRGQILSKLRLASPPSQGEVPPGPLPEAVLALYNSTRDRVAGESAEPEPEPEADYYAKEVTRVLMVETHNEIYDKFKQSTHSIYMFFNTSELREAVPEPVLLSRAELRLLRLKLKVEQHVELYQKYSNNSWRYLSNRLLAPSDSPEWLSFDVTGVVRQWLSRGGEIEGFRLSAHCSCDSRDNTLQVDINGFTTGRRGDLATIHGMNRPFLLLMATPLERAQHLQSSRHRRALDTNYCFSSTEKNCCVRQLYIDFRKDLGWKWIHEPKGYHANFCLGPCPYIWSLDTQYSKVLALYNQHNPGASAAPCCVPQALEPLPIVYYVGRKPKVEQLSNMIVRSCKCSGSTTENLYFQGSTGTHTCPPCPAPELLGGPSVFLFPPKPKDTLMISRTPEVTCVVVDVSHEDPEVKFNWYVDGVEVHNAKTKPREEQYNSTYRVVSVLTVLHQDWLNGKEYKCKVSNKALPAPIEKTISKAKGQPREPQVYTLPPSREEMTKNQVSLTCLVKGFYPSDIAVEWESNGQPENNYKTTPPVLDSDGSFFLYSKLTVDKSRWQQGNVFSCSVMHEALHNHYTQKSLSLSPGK
- experiment.notes: SPR pH 6.0, antigen-Fc captured, Fab analyte
experimental.readout: kon

68BLH (Fab, V domains shown, also called 20BLM Fab) VH: EVQLVQSGAEVKKPGASVKVSCKASGYTFTSYDMHWVRQAPGQGLEWMGRIDPQSGGEKYAQKFQGRATLTVDTSTSTAYMELSRLRSDDTAVYYCARYDYGGYFDVWGQGTLVTVSS VL: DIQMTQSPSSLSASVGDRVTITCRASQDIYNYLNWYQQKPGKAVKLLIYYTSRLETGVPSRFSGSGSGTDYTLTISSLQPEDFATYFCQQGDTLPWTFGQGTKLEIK; 8.94e+06 M⁻¹ s⁻¹
58BLH (Fab, V domains shown, also called 10BLM Fab) VH: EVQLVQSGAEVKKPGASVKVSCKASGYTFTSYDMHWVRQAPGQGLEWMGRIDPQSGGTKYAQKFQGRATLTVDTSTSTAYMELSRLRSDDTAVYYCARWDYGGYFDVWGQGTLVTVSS VL: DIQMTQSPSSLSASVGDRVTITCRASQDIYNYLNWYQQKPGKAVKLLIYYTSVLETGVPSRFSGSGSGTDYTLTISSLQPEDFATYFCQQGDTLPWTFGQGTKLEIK; 6.88e+06 M⁻¹ s⁻¹
54BLH (Fab, V domains shown, also called 06BLM Fab) VH: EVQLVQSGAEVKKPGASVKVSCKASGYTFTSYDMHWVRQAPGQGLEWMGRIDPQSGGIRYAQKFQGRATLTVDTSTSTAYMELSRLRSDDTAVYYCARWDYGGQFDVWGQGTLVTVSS VL: DIQMTQSPSSLSASVGDRVTITCRASQDIYNYLNWYQQKPGKAVKLLIYYTSILETGVPSRFSGSGSGTDYTLTISSLQPEDFATYFCQQGDTLPWTFGQGTKLEIK; 7.56e+06 M⁻¹ s⁻¹
57BLH (Fab, V domains shown, also called 09BLM Fab) VH: EVQLVQSGAEVKKPGASVKVSCKASGYTFTSYDMHWVRQAPGQGLEWMGRIDPISGGIKYAQKFQGRATLTVDTSTSTAYMELSRLRSDDTAVYYCARWDYGGYFDVWGQGTLVTVSS VL: DIQMTQSPSSLSASVGDRVTITCRASQDIFNYLNWYQQKPGKAVKLLIYYTSHLETGVPSRFSGSGSGTDYTLTISSLQPEDFATYFCQQGDTLPWTFGQGTKLEIK; 1.54e+07 M⁻¹ s⁻¹
62BLH (Fab, V domains shown, also called 14BLM Fab) VH: EVQLVQSGAEVKKPGASVKVSCKASGYTFTSYDTHWVRQAPGQGLEWMGRIDPQSGGIKYAQKFQGRATLTVDTSTSTAYMELSRLRSDDTAVYYCARWDYGGYFDVWGQGTLVTVSS VL: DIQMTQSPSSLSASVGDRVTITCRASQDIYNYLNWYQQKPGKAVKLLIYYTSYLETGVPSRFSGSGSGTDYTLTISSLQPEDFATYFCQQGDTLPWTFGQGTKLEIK; 5.8e+06 M⁻¹ s⁻¹
